Source: patent US20260193293A1

Examples of binders with documented pKi follow.
subject.of.test: Sushi domains (SD1/2) protein of the GABAB1a (GB1a) subunit, recombinant
Sequence (Q9Z0U4 29-158): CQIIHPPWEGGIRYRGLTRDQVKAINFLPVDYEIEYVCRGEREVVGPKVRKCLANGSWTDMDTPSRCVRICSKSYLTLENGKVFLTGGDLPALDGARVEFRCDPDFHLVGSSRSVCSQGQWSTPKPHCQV
experiment.description: FP competition
Non-standard residues stand in square brackets, D forms with d.
# pKi = -log10(concentration in molar units)

Measured pKi, Ac-EEDDSDVWWGGADTDYADGGEDK-NH2 : 6.41

Item: Ac-PWAIVWGPTVSREDGGDPN-NH2 | pKi: 6.24

Lab book: pKi of Ac-PWAIVWAPTVSRED-NH2 noted as 6.06

---
Noted for Ac-ETAFIAWGPTGDED-NH2 : its pKi reads 7.31

What the record says about Ac-EDDS[dD]VWWGGADTD-NH2 [EDDSd…] : pKi is 5.79

The reported value for Ac-EDDSDVAWGGADTD-NH2 in terms of pKi is 5.06

pKi reading for Ac-RRRRRRRREAAAKEDDDWIDWYDSDDD-NH2 [R8-RL-16 (…)] : 6.50
